target: Histamine H4 receptor (Homo sapiens); assay: biochemical; assay type: cell-based, SK-N-MC
metric: Ki (nM)
// return numeric value only (unit: nM, not printed)

Ask: Using the record for NCCCCc1c[nH]cn1 [IMBUTAMINE] , report its Ki.
Reply: 12.7

###

biological target: Histamine H3 receptor (Homo sapiens, UniProt Q9Y5N1); test: Intrinsic activity at human histamine H3 receptor expressed in sf9 cell membrane co-expressing mammalian Galphai2 and Gbeta1gamma2 at 10 uM incubated for 90 mins by [35S]GTPgammaS binding assay relative to histamine; format: functional
Sequence (Q9Y5N1 whole entry): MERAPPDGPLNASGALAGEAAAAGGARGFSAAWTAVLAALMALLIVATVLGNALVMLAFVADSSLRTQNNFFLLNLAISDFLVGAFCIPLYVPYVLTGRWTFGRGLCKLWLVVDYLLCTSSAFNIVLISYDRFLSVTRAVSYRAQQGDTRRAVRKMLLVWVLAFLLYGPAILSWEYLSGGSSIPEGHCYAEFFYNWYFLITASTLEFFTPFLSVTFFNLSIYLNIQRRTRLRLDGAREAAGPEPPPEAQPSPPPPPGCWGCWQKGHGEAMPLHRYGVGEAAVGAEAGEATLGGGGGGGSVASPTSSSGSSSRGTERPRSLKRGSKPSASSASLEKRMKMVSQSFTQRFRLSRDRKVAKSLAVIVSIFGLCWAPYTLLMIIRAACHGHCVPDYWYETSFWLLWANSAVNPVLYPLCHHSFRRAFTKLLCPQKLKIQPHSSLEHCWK
metric: Intrinsic activity
Answer with a number only.

Study these solved cases before continuing.
NC[C@@H]1CC[C@H](c2c[nH]cn2)C1 (racemic); 0
N#C/N=C(/NCCCCc1c[nH]cn1)NCCSc1ccccc1; -0.52
N#C/N=C(/NCCSc1ccccc1)NC[C@@H]1CC[C@H](c2c[nH]cn2)C1; -0.21
N#C/N=C(/NCCSc1ccccc1)NC[C@H]1CC[C@@H](c2c[nH]cn2)C1; -0.34
CN/C(=N\C#N)NC[C@@H]1CC[C@@H](c2c[nH]cn2)C1; 0.29

Ask: // lookup Intrinsic activity for CC(C)CN/C(=N/C#N)NC[C@@H]1CC[C@H](c2c[nH]cn2)C1 (racemic)
Reply: 0.5

Ask: Fill blank: measured Intrinsic activity of the molecule N#C/N=C(\NC[C@@H]1CC[C@H](c2c[nH]cn2)C1)NC1CC1 (racemic) is ____.
Reply: 0.28

Ask: Find the recorded Intrinsic activity belonging to CN/C(=N\C#N)NC[C@@H]1CC[C@H](c2c[nH]cn2)C1 and report it.
Reply: 0.61

Ask: GET /values?readout=Intrinsic activity&item= CN/C(=N\C#N)NC[C@H]1CC[C@H](c2c[nH]cn2)C1 (racemic)
Reply: -0.46

Ask: # lookup: Intrinsic activity of CN/C(=N\C#N)NC[C@H]1CC[C@@H](c2c[nH]cn2)C1
Reply: -0.14

###

These molecules were tested on Histamine H2 receptor (Homo sapiens, UniProt P25021); Ki is the recorded read-out.
Sequence (P25021 whole entry): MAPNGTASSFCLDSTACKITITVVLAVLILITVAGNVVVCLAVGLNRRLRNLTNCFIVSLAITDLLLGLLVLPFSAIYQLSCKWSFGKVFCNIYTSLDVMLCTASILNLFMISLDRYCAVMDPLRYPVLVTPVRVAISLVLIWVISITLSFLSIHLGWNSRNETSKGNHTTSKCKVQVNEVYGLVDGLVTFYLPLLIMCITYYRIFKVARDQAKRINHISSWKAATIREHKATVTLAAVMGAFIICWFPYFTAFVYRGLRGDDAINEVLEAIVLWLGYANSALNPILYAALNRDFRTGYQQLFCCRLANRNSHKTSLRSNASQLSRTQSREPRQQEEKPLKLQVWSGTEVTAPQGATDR

Reference set, count: 3
CN/C(=N\C#N)NC[C@@H]1CC[C@@H](c2c[nH]cn2)C1; > 10 µM
CN/C(=N\C#N)NC[C@@H]1CC[C@H](c2c[nH]cn2)C1; > 10 µM
N#C/N=C(/NCCSc1ccccc1)NC[C@@H]1CC[C@H](c2c[nH]cn2)C1; 7.25 µM

Ask: Any idea what Ki was measured for CN/C(=N\C#N)NC[C@H]1CC[C@H](c2c[nH]cn2)C1 ?
Reply: > 10 µM

Ask: Looking for the measured Ki of CN/C(=N\C#N)NC[C@H]1CC[C@@H](c2c[nH]cn2)C1 , can you help?
Reply: > 10 µM

###

molecular target: Histamine H4 receptor (Homo sapiens, UniProt Q9H3N8); test: Agonist activity at human SF-His6-tagged histamine H4 receptor expressed in HEK293 cells assessed as inhibition of forskolin-stimulated response incubated for 5 hrs by luciferase reporter gene assay; type: cell-based
Sequence (Q9H3N8 whole entry): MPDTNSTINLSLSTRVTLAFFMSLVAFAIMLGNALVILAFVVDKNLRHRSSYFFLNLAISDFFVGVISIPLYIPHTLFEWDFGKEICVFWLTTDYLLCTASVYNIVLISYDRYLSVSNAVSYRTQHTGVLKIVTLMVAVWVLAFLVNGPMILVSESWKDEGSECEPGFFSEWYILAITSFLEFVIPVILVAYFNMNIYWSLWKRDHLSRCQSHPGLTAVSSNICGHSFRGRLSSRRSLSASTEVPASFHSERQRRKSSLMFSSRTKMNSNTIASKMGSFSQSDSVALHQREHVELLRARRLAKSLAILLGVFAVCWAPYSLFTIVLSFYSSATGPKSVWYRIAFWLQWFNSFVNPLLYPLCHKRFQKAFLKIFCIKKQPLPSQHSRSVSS
metric: pEC50
A value of pEC50 is the negative decimal logarithm of a concentration given in moles per litre.

Observe how each entry below is paired with its result.
N#C/N=C(/NCCSc1ccccc1)NC[C@@H]1CC[C@@H](c2c[nH]cn2)C1; 6.30
N#C/N=C(/NCCSc1ccccc1)NC[C@H]1CC[C@H](c2c[nH]cn2)C1; 7.60

API: the following record is the query input.
Ask: I'd like to know its pEC50. The compound in question is CN/C(=N\C#N)NC[C@H]1CC[C@H](c2c[nH]cn2)C1
Reply: 7.20

###

biological target: Histamine H3 receptor (Homo sapiens, UniProt Q9Y5N1); assay: Displacement of [3H]N-alpha-methylhistamine from human histamine H3 receptor expressed in human SK-N-MC cells incubated for 40 mins; format: cell-based
metric: pKi
API: returns pKi as number; meaning -log10 of concentration in mol/L.

Ask: Any idea what its pKi is? The compound is NCCCCc1c[nH]cn1 [IMBUTAMINE]
Reply: 8.37

###

# Lookup of reported pKi keyed by entry
biological target: UniProtKB Q9H3N8; test: Displacement of [3H]UR-PI294 from human histamine H4 receptor expressed in sf9 cell membrane co-expressing mammalian Galphai2 and Gbeta1gamma2 incubated for 60 mins by liquid scintillation counting method
# pKi = -log10(concentration in molar units)

Here's what some known entries look like.
N#C/N=C(/NCCSc1ccccc1)NC[C@H]1CC[C@@H](c2c[nH]cn2)C1; 6.54
CN/C(=N\C#N)NC[C@@H]1CC[C@@H](c2c[nH]cn2)C1; 6.06
N#C/N=C(/NCCSc1ccccc1)NC[C@H]1CC[C@H](c2c[nH]cn2)C1 (racemic); 7.00
N#C/N=C(/NCCSc1ccccc1)NC[C@H]1CC[C@H](c2c[nH]cn2)C1; 7.66
N#C/N=C(/NCCSc1ccccc1)NC[C@@H]1CC[C@@H](c2c[nH]cn2)C1; 5.98
N#C/N=C(/NCCSc1ccccc1)NC[C@@H]1CC[C@H](c2c[nH]cn2)C1; 6.74
CN/C(=N\C#N)NC[C@H]1CC[C@H](c2c[nH]cn2)C1 (racemic); 6.62
N#C/N=C(/NCCSc1ccccc1)NC[C@@H]1CC[C@H](c2c[nH]cn2)C1 (racemic); 6.60

Ask: Param readout = pKi; param system = UniProtKB Q9H3N8; param query = CN/C(=N\C#N)NC[C@H]1CC[C@H](c2c[nH]cn2)C1 ; response: value
Reply: 7.01

Ask: Please state recorded pKi (tested on UniProtKB Q9H3N8) of CN/C(=N\C#N)NC[C@@H]1CC[C@H](c2c[nH]cn2)C1
Reply: 6.92

Ask: Find the measured pKi: item CN/C(=N\C#N)NC[C@@H]1CC[C@H](c2c[nH]cn2)C1 (racemic) , target or system UniProtKB Q9H3N8.
Reply: 6.81

Ask: Any idea what pKi came out for CN/C(=N\C#N)NC[C@H]1CC[C@@H](c2c[nH]cn2)C1 on UniProtKB Q9H3N8?
Reply: 5.46

###

target: Histamine H1 receptor (Homo sapiens, UniProt P35367); test: Displacement of [3H]mepyramine from human histamine H1 receptor expressed in sf9 cell membrane co-expressing RGS4 incubated for 60 mins by liquid scintillation counting method; details: sf9
Sequence (P35367 whole entry): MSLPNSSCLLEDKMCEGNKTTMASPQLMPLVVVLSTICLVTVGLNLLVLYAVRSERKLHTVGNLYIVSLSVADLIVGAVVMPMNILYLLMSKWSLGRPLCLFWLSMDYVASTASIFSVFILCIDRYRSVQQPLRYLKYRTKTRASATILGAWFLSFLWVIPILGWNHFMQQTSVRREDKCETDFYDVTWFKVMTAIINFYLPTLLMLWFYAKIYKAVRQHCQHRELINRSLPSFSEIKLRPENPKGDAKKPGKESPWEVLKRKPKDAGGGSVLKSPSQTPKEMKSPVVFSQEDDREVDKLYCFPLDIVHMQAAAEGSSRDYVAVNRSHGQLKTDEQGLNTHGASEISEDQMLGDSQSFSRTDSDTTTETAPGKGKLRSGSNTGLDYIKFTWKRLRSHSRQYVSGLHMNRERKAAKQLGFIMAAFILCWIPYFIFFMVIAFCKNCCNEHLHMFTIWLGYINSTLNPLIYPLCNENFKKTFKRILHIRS
# Ki per record follows

CN/C(=N\C#N)NC[C@@H]1CC[C@H](c2c[nH]cn2)C1; > 10 µM

Next item in the queue.
Ask: Which measured Ki value corresponds to CN/C(=N\C#N)NC[C@H]1CC[C@H](c2c[nH]cn2)C1 ?
Reply: > 10 µM

###

target: Histamine H1 receptor (Homo sapiens); assay: Displacement of [3H]mepyramine from human histamine H1 receptor expressed in sf9 cell membrane co-expressing RGS4 incubated for 60 mins by liquid scintillation counting method
Reported pKi values for a set of molecules
Friendly reminder that pKi comes from taking -log10 of the concentration in mol/L.

Sample records with pKi:
N#C/N=C(/NCCCc1ccccc1)NC[C@@H]1CC[C@H](c2c[nH]cn2)C1 (racemic); 5.03
N#C/N=C(/NCCSc1ccccc1)NC[C@H]1CC[C@H](c2c[nH]cn2)C1 (racemic); 5.22
CC(C)CN/C(=N/C#N)NC[C@@H]1CC[C@H](c2c[nH]cn2)C1 (racemic); 5.08
N#C/N=C(/NCCSc1ccccc1)NC[C@H]1CC[C@H](c2c[nH]cn2)C1; 5.19

Ask: Entry CC(C)CN/C(=N/C#N)NC[C@H]1CC[C@H](c2c[nH]cn2)C1 (racemic) : reported pKi = ?
Reply: 5.06

Ask: pKi for N#C/N=C(/NCCSc1ccccc1)NC[C@@H]1CC[C@@H](c2c[nH]cn2)C1 ?
Reply: 5.10

Ask: Data request, read-out pKi, for N#C/N=C(/NCCSc1ccccc1)NC[C@H]1CC[C@@H](c2c[nH]cn2)C1
Reply: 5.17

Ask: Form field: reported pKi of N#C/N=C(/NCCSc1ccccc1)NC[C@@H]1CC[C@H](c2c[nH]cn2)C1 (racemic)
Reply: 5.42

Ask: pKi for N#C/N=C(/NCCSc1ccccc1)NC[C@@H]1CC[C@H](c2c[nH]cn2)C1 ?
Reply: 5.52

###

Here the recorded Intrinsic activity is given for each entry.
target: Histamine H3 receptor (Homo sapiens, UniProt Q9Y5N1); experiment: Intrinsic activity at human histamine H3 receptor expressed in sf9 cell membrane co-expressing mammalian Galphai2 and Gbeta1gamma2 at 10 uM incubated for 90 mins by [35S]GTPgammaS binding assay relative to histamine; assay type: functional
The answer should be written as a number, with no unit following it.

// solved cases for Intrinsic activity follow
CN/C(=N\C#N)NC[C@H]1CC[C@H](c2c[nH]cn2)C1; 0.59
NC[C@H]1CC[C@H](c2c[nH]cn2)C1 (racemic); 0
S=C(NC1CCCCC1)N1CCC(c2cnc[nH]2)CC1; -0.59
N#C/N=C(/NCCSc1ccccc1)NC[C@H]1CC[C@H](c2c[nH]cn2)C1 (racemic); -0.4

# next molecule below
Ask: So what does the record say about Intrinsic activity for CN/C(=N\C#N)NC[C@@H]1CC[C@H](c2c[nH]cn2)C1 (racemic) ?
Reply: 0.51
